Data origin, for the record: patent US11214803B2

Listed here: items and their measured YAP1 (% UTC).
Test system: Yap1 mRNA
test.name: Antisense inhibition of human Yap1 in SNU-449 cells by modified oligonucleotides, single dose (Example 5, RTS36584)
Type: cell-based
experimental.context: Table 40 (separate experiment); SNU-449 cells, 10,000 cells per well, free uptake, 2,000 nM oligonucleotide, approx. 48 hours; RTS36584; normalized to RIBOGREEN; Yap1 mRNA relative to untreated control
Strand notation (5' to 3'): a small letter for the sugar, then the base; units joined by * are phosphorothioate-linked, units joined directly phosphodiester-linked; [ ] holds rarer units or linkages, { } end groups; capitals alone tell only the bases. e = 2'-O-(2-methoxyethyl) (MOE); k = constrained ethyl (cEt); [5mC] = 5-methylcytosine; d = 2'-deoxy (DNA)
// units = % UTC; emit number, no label

Entry 1198743 (k[5mC]*eT*kT*dT*dT*dA*d[5mC]*dA*dT*dT*dA*dG*eG*eA*kA*k[5mC]; antisense) [Compound 1198743] , YAP1 (% UTC) reported as 86

---

YAP1 (% UTC) for assorted substances
Test system: Yap1 mRNA
test.name: Antisense inhibition of human Yap1 in A-431 cells by cEt gapmers, single dose (Example 3, RTS36584)
Type: cell-based
experimental.context: Table 11; A-431 cells, 5,000 cells per well, free uptake, 2,000 nM oligonucleotide, approx. 48 hours; primer probe set RTS36584; Yap1 mRNA normalized to RIBOGREEN, percent of untreated control
Strand notation (5' to 3'): a small letter for the sugar, then the base; units joined by * are phosphorothioate-linked, units joined directly phosphodiester-linked; [ ] holds rarer units or linkages, { } end groups; capitals alone tell only the bases. k = constrained ethyl (cEt); [5mC] = 5-methylcytosine; d = 2'-deoxy (DNA)
Give the value, in units of % UTC, as a plain number.

Use these answered entries as a reference point.
[
  {
    "substance": "715483 (antisense k[5mC]*kT*k[5mC]*dT*dT*dT*dG*dG*dA*dA*dA*d[5mC]*d[5mC]*kA*kT*kT) [Compound 715483]",
    "obs.value": 1
  },
  {
    "substance": "958463 (antisense k[5mC]*k[5mC]*kT*dG*dA*dG*dA*d[5mC]*dA*dT*d[5mC]*d[5mC]*d[5mC]*kG*kG*kG) [Compound 958463]",
    "obs.value": 63
  }
]

Observed YAP1 (% UTC) on Yap1 mRNA, entry 958603 (kT*kG*kG*dT*dA*dT*dG*dA*dA*dT*dT*d[5mC]*dT*kG*kA*kA; antisense) [Compound 958603] , equals 3

Test item 958693 (antisense kG*kT*kG*dG*dT*dG*dT*d[5mC]*dT*d[5mC]*dA*d[5mC]*dA*kG*kG*k[5mC]) [Compound 958693] ; Yap1 mRNA; reported YAP1 (% UTC) was 99

Observed YAP1 (% UTC), Yap1 mRNA, 958688 (antisense kG*kG*k[5mC]*dT*dA*dT*dG*dT*dA*dG*d[5mC]*d[5mC]*dT*kT*k[5mC]*k[5mC]) [Compound 958688] : 82

Tested on Yap1 mRNA: 958558 (kT*kT*k[5mC]*dA*d[5mC]*dA*dA*d[5mC]*d[5mC]*dA*dA*d[5mC]*dT*kA*kT*kT; antisense) [Compound 958558] . Observed YAP1 (% UTC): 9

Noted YAP1 (% UTC) for 958673 (kA*kG*kA*dA*d[5mC]*dT*dT*dA*dG*dT*dT*d[5mC]*d[5mC]*k[5mC]*kT*kT; antisense) [Compound 958673] , tested on Yap1 mRNA: 30

Record for 958718 (antisense kG*kA*kA*d[5mC]*dA*d[5mC]*dT*dA*dT*dA*dG*d[5mC]*dT*kT*kG*kG) [Compound 958718] under target or system Yap1 mRNA: YAP1 (% UTC) reported as 4
